Answer each item with its documented viability at 48 h, 100 µM.
test: in vitro; settings: human
Give the value; after it, write the unit.

Exam item: Would you mind telling me what viability at 48 h, 100 µM value was observed for COc1ccc(C2CC(=O)c3c(O)cc(OCC(=O)NCCc4ccc(Br)cc4)cc3O2)cc1O (stereo not shown) [Compound 4n] ?
Marked response: 55.6%

Exam item: Do the same for COc1ccc(C2CC(=O)c3c(O)cc(OCC(=O)NCc4ccc(Cl)cc4)cc3O2)cc1O (stereo not shown) [Compound 4b] please
Marked response: 65.4%

Exam item: Do the same for COc1ccc(CNC(=O)COc2cc(O)c3c(c2)OC(c2ccc(OC)c(O)c2)CC3=O)cc1 (stereo not shown) [Compound 4e] please
Marked response: 66.5%

Exam item: Do the same for COc1ccc(C2CC(=O)c3c(O)cc(OCC(=O)NCCc4ccccc4Cl)cc3O2)cc1O (stereo not shown) [Compound 4p] please
Marked response: 64.5%
